Property: hERG current change (%, negative = inhibition) at 10uM; scope: individual compounds
Target: human ether-à-go-go-related gene (hERG) potassium channel (human);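 further: peak tail current of the secondary pulse compared with the same well before compound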
Sequence (Q12809 whole entry, looked up): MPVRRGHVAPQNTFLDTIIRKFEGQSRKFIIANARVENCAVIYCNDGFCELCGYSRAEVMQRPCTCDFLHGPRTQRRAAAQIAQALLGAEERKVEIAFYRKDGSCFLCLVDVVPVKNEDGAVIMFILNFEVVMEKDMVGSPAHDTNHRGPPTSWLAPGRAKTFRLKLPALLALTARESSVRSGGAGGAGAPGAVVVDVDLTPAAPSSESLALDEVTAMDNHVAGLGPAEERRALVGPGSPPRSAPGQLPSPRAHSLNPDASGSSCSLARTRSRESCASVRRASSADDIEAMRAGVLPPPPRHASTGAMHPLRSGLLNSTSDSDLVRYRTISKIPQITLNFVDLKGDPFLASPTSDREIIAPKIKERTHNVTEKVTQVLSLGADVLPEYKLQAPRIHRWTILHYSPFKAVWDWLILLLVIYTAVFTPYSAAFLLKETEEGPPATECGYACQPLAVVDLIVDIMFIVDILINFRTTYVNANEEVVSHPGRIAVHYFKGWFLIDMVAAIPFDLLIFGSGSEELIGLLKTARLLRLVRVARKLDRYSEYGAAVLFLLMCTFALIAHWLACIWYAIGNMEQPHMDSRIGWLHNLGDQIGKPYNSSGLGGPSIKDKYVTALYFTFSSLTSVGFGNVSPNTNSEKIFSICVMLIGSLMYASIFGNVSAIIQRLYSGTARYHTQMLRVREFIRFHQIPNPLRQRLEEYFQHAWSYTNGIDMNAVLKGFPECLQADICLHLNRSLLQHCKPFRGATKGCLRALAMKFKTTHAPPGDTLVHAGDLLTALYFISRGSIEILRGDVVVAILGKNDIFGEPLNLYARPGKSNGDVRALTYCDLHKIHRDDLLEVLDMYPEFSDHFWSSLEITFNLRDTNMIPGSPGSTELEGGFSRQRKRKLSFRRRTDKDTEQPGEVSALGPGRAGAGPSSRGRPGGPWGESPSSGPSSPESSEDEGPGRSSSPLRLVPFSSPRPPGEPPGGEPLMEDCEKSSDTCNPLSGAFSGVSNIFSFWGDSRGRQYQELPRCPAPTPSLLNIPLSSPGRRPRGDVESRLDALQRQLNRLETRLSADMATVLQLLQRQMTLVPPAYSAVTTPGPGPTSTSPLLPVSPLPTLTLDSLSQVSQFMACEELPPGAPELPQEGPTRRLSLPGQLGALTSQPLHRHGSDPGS
Test: primary screen, population patch clamp on CHO cells stably expressing hERG; higher = less effect of the substance
Method: Briefly, Chinese hamster ovary (CHO) cells stably expressing the hERG channel were dislodged from tissue culture flasks and dispensed into PPC plates. […] During the recording, background leak currents were estimated by a 100 ms step to -80 mV from an initial holding potential of -70 mV and subtracted from the subsequent current measurement. The campaign was conducted in two phases using slight differences in recording protocol. […]
In all, about 310,000 compounds went through this assay and about 14,000 (4.5%) showed an effect of 50% or more. Effects have a minus sign here. The full list was thinned out, with strong results kept by preference.
MEASURE NAME: hERG current change (%, negative = inhibition) at 10uM (%)

INSERT INTO measurements (compound, result_value) VALUES
  ('C=CCn1c(SCC(=O)Nc2cc(C)c(Cl)cc2OC)nnc1-c1ccco1', -23.6),
  ('O=C(CSc1nc(=O)n(CCCN2CCOCC2)c2c1CCC2)Nc1ccc([N+](=O)[O-])cc1', -60.4),
  ('COC(=O)c1c(NC(=O)CSc2nnc(-c3cccnc3)n2Cc2ccco2)sc(C)c1C', -59.3),
  ('COc1ccc(S(=O)(=O)N2CCOC2CNC(=O)C(=O)NCc2ccccn2)cc1C (stereo not shown)', 11.6),
  ('O=C(CSc1nc(=O)n(CCCN2CCOCC2)c2c1CCCC2)Nc1cccc([N+](=O)[O-])c1', -67.7),
  ('CC(=O)Nc1cccc(NC(=O)CSc2nc(=O)n(CCN3CCOCC3)c3c2CCC3)c1', -2.96),
  ('Cc1cc(C)c(NC(=O)CSc2nnc(-c3ccncc3)n2Cc2ccco2)c(Cl)c1', -52.7);

====

target: human ether-à-go-go-related gene (hERG) potassium channel (human); assay: primary screen, population patch clamp on CHO cells stably expressing hERG; higher = less effect of the substance;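 further: peak tail current of the secondary pulse compared with the same well before compound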
In all, about 310,000 compounds went through this assay and about 14,000 (4.5%) showed an effect of 50% or more. The effect is printed as a negative number. Only a selection was taken, and strong results are over-represented in it overall.
Recorded measurements of hERG current change (%, negative = inhibition) at 10uM, one per entry
MEASURE NAME: hERG current change (%, negative = inhibition) at 10uM

INSERT INTO results (molecule, result_value) VALUES
  ('COc1ccc(OCCSc2nc3nc(C)cc(C)n3n2)cc1', '-13.1%'),
  ('CC(C)N1CCN(CCCc2ccccc2)CC1CCO (stereo not drawn)', '-4.39%'),
  ('CC(C)CN1CCN(CCCc2ccccc2)C(CCO)C1 (stereo not drawn)', '-35.5%'),
  ('CCN(Cc1ccccc1)S(=O)(=O)c1ccc(C(=O)N(CCCN(C)C)c2nc3cc4c(cc3s2)OCO4)cc1.Cl', '-45.2%'),
  ('OCCC1CN(CCCc2ccccc2)CCN1CCc1ccccc1 (stereo not drawn)', '-77.2%'),
  ('O=S(=O)(NCC1CCCO1)c1ccc(NS(=O)(=O)c2ccc(F)cc2)cc1 (stereo not drawn)', '14.6%'),
  ('Cc1ccnc2nc(C(=O)OCCOc3ccc(Cl)cc3)nn12', '-56.2%'),
  ('CCN(Cc1ccccc1)S(=O)(=O)c1ccc(C(=O)N(CCCN(C)C)c2nc3cc4c(cc3s2)OCCO4)cc1.Cl', '-27.5%'),
  ('N#CCCn1cc(C(=O)Nc2ccccc2Cl)c(-c2ccc([N+](=O)[O-])cc2)n1', '-64.4%'),
  ('N#CCCn1cc(C(=O)Nc2ccc([N+](=O)[O-])cc2)c(-c2ccccc2)n1', '-80.1%'),
  ('CN(C)CCCN(C(=O)c1ccc(S(=O)(=O)N(C)Cc2ccccc2)cc1)c1nc2cc3c(cc2s1)OCO3.Cl', '-51.7%'),
  ('CC(=O)N1CCC(c2c[nH]c3ccccc23)CC1', '5.87%'),
  ('O=C(Nc1ccccc1)OCc1cn(-c2ccc(Cl)cc2)nn1', '22.3%'),
  ('Cc1cccc(C(C(=O)NC2CCCCC2)N(C(=O)c2csnn2)C2CC2)c1 (stereo not drawn)', '7.99%'),
  ('CN(C)CCN(C(=O)c1ccc(S(=O)(=O)N(C)c2ccccc2)cc1)c1nc2cc3c(cc2s1)OCO3.Cl', '-2.57%'),
  ('O=C(CN1C(=O)c2ccccc2C1=O)N1CCN(C2c3ccccc3-c3ccccc32)CC1', '-23.1%'),
  ('Cc1cc(C)n2nc(SCCOc3ccc(F)cc3)nc2n1', '-68.8%'),
  ('Cc1ccc(NC(=O)c2cc(CC(C)C)nc3ccccc23)cc1', '11%'),
  ('CSc1ccc(COC(=O)CCS(=O)(=O)c2ccc(C)cc2)cc1', '-9.83%'),
  ('CN(C(=O)c1cccnc1)c1nnc(-c2cnccn2)s1', '8.06%'),
  ('O=C(Nc1cccc(Cl)c1)OCc1cn(-c2ccccc2)nn1', '-52.6%'),
  ('CCN(c1ccccc1)S(=O)(=O)c1ccc(C(=O)N(CCN(C)C)c2nc3c(F)cc(F)cc3s2)cc1.Cl', '-54.7%'),
  ('O=C(C1COc2ccccc2O1)N1CCN(c2nc3c(F)cc(F)cc3s2)CC1 (stereo not drawn)', '-16.6%'),
  ('COc1ccc(-c2nn(CCC#N)cc2C(=O)Nc2ccccc2Br)cc1[N+](=O)[O-]', '-39.6%'),
  ('CCOC(=O)c1cc2nc(-c3ccccc3)cc(C)n2n1', '5.61%'),
  ('O=C(NCCCN1CCCCC1)C1CC(=O)N(CCc2ccccc2)C1 (stereo not drawn)', '12.3%'),
  ('CCC(C(=O)N1CC2(C)CC1CC(C)(C)C2)N1C(=O)c2ccccc2C1=O (stereo not drawn)', '-18.3%');
